ASSAY COMMENT: Standard protocol for determination of kcat and KM (continuous spectrophotometric assay, Acetyl CoA hydrolysis at 235 nm)
Format: biochemical
EXPERIMENTAL SETUP: purified protein; about 23° C.; pH 6.8; 0.2 mM acetyl CoA; glyphosate 0.125 to 10 mM
PROPERTY: Km
Enter the number, and then the unit.

SEQ ID NO: 364: GAT polypeptide (protein, 3C_9H8, GAT polypeptide) MIEVKPINAEDTYEIRHRILRPNQPLEACMYETDLLGGTFHLGGYYQDRLISIASFHQAEHSELEGQKQYQLRGMATLEGYREQKAGSTLIRYAEELLRKKGADLLWCNARISASGYYEKLGFSEQGEVYDIPPIGPHILMYKKLT; 1000 µM
SEQ ID NO: 389: GAT polypeptide (protein, 6_19B6, GAT polypeptide) MIEVKPINAEDTYEIRHRILRPNQPLEACMYETDLLRGAFHLGGYYRGKLISIASFHQAEHSELEGQKQYQLRGMATLEGYREQKAGSTLIRHAEELLRKKGADLLWCNARTSASGYYKKLGFSEQGEVYDIPPVGPHILMYKKLT; 700 µM

The record that follows has no Km shown yet.
Prompt: Bench note: what Km did SEQ ID NO: 391: GAT polypeptide (protein, 6_19C8, GAT polypeptide) MIEVKPINAEDTYEIRHRILRPNQPLEACKYETDLLGGTLHLGGYYRGKLISIASFHQAEHPELEGQKQYQLRGMATLEGYREQKAGSTLIRQAEELLRKKGADLLWCNARTSASGYYKKLGFSEQGGVYDIPPVGPHILMYKELT show?
Completion: 2000 µM
